Origin of values: PubChem BioAssay (NCI)

Tested on: LOX IMVI melanoma
Assay: NCI-60 one-dose screen, 48 h (100 = growth as untreated, 0 = no growth, -100 = all killed)
Details: 10 µM unless noted
Compounds without any hit were thinned out: in the full panel of roughly 83,000, 20% have a hit.
ASSAY ENDPOINT: growth (%)
Kindly answer with a numeric value in %, unit omitted.

Reference set, count: 5
[[record]]
compound = "Cc1ccc(Cc2cnc(NC(=O)CN3C(=O)/C(=C\\c4ccccc4)SC3=S)s2)cc1"
measured_target = "LOX IMVI melanoma"
numeric_readout = 98.6

[[record]]
compound = "CCCCN1CCN(c2ccc3nc(-c4ccc5nc(-c6ccc(OC)c(OC)c6)[nH]c5c4)[nH]c3c2)CC1"
measured_target = "LOX IMVI melanoma"
numeric_readout = -81.4

[[record]]
compound = "COc1ccc(/C(C#N)=C/c2nc3c(N4CCOCC4)nc(Cl)nc3n2C)cc1OC"
measured_target = "LOX IMVI melanoma"
numeric_readout = -71

[[record]]
compound = "O=C(CN1C=NC2C(N3CCOCC3)=NC=NC21)c1ccc(Br)cc1 (stereo not given)"
measured_target = "LOX IMVI melanoma"
numeric_readout = 97.3

[[record]]
compound = "C1CCN(c2nc(N3CCCCC3)nc(N3CCOCC3)n2)CC1"
measured_target = "LOX IMVI melanoma"
numeric_readout = 98.7


input: Could you tell me which growth is on file for `CNCCNc1nc2ccccc2c2c(=O)c3cc(OC)ccc3sc12` ?
output: -87.8

input: Next: `Cc1ccc(NC2=CC(=O)C(=O)c3ccccc32)c(C)c1`
output: -23.2

input: What about COC(=O)[C@H](NC(=O)C1(C)CCC[C@]2(C)[C@H]3C[C@H]4C(C(C)C)=C[C@]3(CC[C@@H]12)[C@@H]1C(=O)CCC(=O)[C@@H]14)C(C)C (stereo not given in full) ?
output: 90.5

input: `CN1CCN(Cc2ccc(C(=O)Nc3cncc(C#Cc4cnc(N)c5ccccc45)c3)cc2C(F)(F)F)CC1` , same question.
output: -92.4

input: Entry to check: `CCCCN1CCN(c2ccc3nc(-c4ccc5nc(-c6ccc(OCC)cc6)[nH]c5c4)[nH]c3c2)CC1`
output: -81

* * *

Test system: CCRF-CEM leukemia
Test: NCI-60 one-dose screen, 48 h (100 = growth as untreated, 0 = no growth, -100 = all killed)
Details: 10 µM unless noted
About 83,000 compounds went through this panel and 20% of them were active in at least one assay; those are over-represented in the sample as a whole.
Below, each of the molecules is paired with its reported growth value.
Express your answer in %, writing the number without its unit.

[[record]]
molecule = "O=C(CCc1nnc2sc(-c3ccc(Cl)cc3Cl)nn12)c1nc2ncccc2[nH]1"
assay_endpoint = "growth"
unit_info = "%"
numeric_readout = 6.98

[[record]]
molecule = "Cn1nc(C(F)(F)F)c(-c2ccc(Cl)c(C(F)(F)F)c2)c1-c1ccc(OCc2ccc(Cl)cc2)cc1O"
assay_endpoint = "growth"
unit_info = "%"
numeric_readout = 9.89

[[record]]
molecule = "CS(=O)(=O)Nc1ccc(C(=O)NC(C(=O)NO)c2ccc(-c3cccc(F)c3)cc2)cc1 (configuration not stated)"
assay_endpoint = "growth"
unit_info = "%"
numeric_readout = 95.1


input: Value lookup for growth; key = `O=C(Cn1cc(COc2ncnc3c2cnn3-c2ccccc2)nn1)Nc1ccccn1`
output: 96.7

input: Lookup COc1ccc(CN2CCCC(C(=O)c3ccc(C(F)(F)F)cc3)C2)c(O)c1 (configuration not stated)
output: 8.95

input: Param item: `O=C(/C=C/c1ccccc1)c1ccc(Nc2nc(NCCO)nc(Nc3ccc(Cl)cc3)n2)cc1`
output: 60.6

input: Then `CCOc1ccc2c(c1)CN(Cc1ccc(Cl)cc1)CO2` ?
output: 78.1

* * *

Tested on: SF-295 CNS
Assay: NCI-60 one-dose screen, 48 h
Conditions: 10 µM unless noted
This is part of a sample that, as a whole, favours compounds with a hit. Of some 83,000 tested, about 20% had one in any assay. Calls of active or inactive are those of the source. How the source made its calls: active means growth percent below 10; inactive means the rest.
Assign a class; possible classes are active, inactive

[[record]]
compound = "O=S1(=O)N(Cc2ccccc2)[C@@H](Cc2ccccc2)[C@H](O)[C@H](O)[C@H](Cc2ccccc2)N1Cc1ccccc1"
answer_label = "active"

[[record]]
compound = "C=C1C(=O)O[C@H]2[C@H]1CC/C(COC(=O)/C=C\\C(=O)O)=C\\CC[C@@]1(C)O[C@@H]21"
answer_label = "inactive"

[[record]]
compound = "COc1ccc(Nc2nc(N/N=C/c3ccc(O)cc3)nc(Nc3ccc([N+](=O)[O-])cc3)n2)cc1"
answer_label = "inactive"

[[record]]
compound = "CCCc1c(C)c2sc(=O)[nH]c2[nH]c1=O"
answer_label = "inactive"

[[record]]
compound = "CC1=C(C(=O)OCC2CCN(C(=O)OC(C)(C)C)CC2)[C@H](c2cccc(C#N)c2)C2=C(CC(C)(C)CC2=O)N1"
answer_label = "inactive"

[[record]]
compound = "COc1nccc2cc3c(=O)n4c(cc5ccccc54)c(=O)n3c12"
answer_label = "inactive"

[[record]]
compound = "COc1ccc2sc3c(NCCCN)nc4ccccc4c3c(=O)c2c1"
answer_label = "inactive"

[[record]]
compound = "O=C(COc1cc(O)c2c(=O)cc(-c3ccccc3)oc2c1)Nc1ccccc1"
answer_label = "inactive"

[[record]]
compound = "CCCCc1c(CCC)c(=N)c2ccccc2n1C"
answer_label = "active"

[[record]]
compound = "O=c1c2cc(F)ccc2sc2c(Nc3ccncc3)nc3ccccc3c12"
answer_label = "inactive"


Kindly consider the entry below.
input: How did this test come out for COc1ccccc1CNC(=O)C1c2ccccc2C(=O)N(CC(C)C)C1c1cccs1 (stereo unspecified) ?
output: active

* * *

System: SK-MEL-28 melanoma
Assay: NCI-60 one-dose screen, 48 h
Settings: 10 µM
About 83,000 compounds went through this panel and 20% of them were active in at least one assay; those are over-represented in the sample as a whole. Calls of active or inactive are those of the source. Rule for the calls: active = growth percent below 10; inactive = the rest.
Respond only with the outcome that fits, drawn from TRUE (active), FALSE (inactive)

[[record]]
compound = "Cn1cc([C@@H]2Nc3ccc4[nH]ncc4c3[C@H]3[C@H]4CCC(C4)[C@H]32)c(C(F)(F)F)n1"
measured_target = "SK-MEL-28 melanoma"
answer_label = "FALSE"

[[record]]
compound = "CCOC(=O)c1cnc2c(C)cccc2c1Nc1ccc(C(C)=O)cc1"
measured_target = "SK-MEL-28 melanoma"
answer_label = "TRUE"

[[record]]
compound = "COc1ccc(-c2nocc2-c2cccs2)cc1"
measured_target = "SK-MEL-28 melanoma"
answer_label = "FALSE"

[[record]]
compound = "CNCCNc1nc2ccccc2c2c(=O)c3cc(OC)ccc3sc12"
measured_target = "SK-MEL-28 melanoma"
answer_label = "FALSE"

[[record]]
compound = "COc1ccc(C(O)(CCC(C)C)C(CN2CCOCC2)c2ccc(Cl)cc2)cc1 (stereo unspecified)"
measured_target = "SK-MEL-28 melanoma"
answer_label = "FALSE"

[[record]]
compound = "COc1ccc(Nc2nc(N/N=C/c3ccc(O)cc3)nc(Nc3ccc([N+](=O)[O-])cc3)n2)cc1"
measured_target = "SK-MEL-28 melanoma"
answer_label = "FALSE"


input: Dear colleague, could you share the recorded outcome for `CC[C@H](C)[C@@H](C(=O)OC)n1cc(CNC(=O)[C@@H](Cc2ccccc2)NC(=O)OCc2ccccc2)nn1` when you have a moment?
output: FALSE

input: Same thing, different compound: `O=c1oc2ccc(Br)cc2c(=O)n1-c1ccc(Br)cc1F`
output: TRUE

input: Next: `Cc1c(C(=O)OCCO)cc(-c2ccc(Cl)cc2)n1-c1ccc(Cl)cc1Cl`
output: FALSE

input: Query `Nc1ccc(C2c3ccccc3Oc3ccccc32)cc1` next
output: FALSE

input: Thanks! And `COc1ccc2sc3c(NCCCN)nc4ccccc4c3c(=O)c2c1` ?
output: FALSE

* * *

System: PC-3 prostate
Assay: NCI-60 one-dose screen, 48 h (100 = growth as untreated, 0 = no growth, -100 = all killed)
Conditions: 10 µM unless noted
This is part of a sample that, as a whole, favours compounds with a hit. Of some 83,000 tested, about 20% had one in any assay.
Friendly reminder: growth below 30% is YES, at or above is NO.

Solved entries (count: 8):
[[record]]
molecule = "O=C(CSc1ccc2nnc(-c3cccc(F)c3)n2n1)Nc1ccc2c(c1)OCO2"
answer_label = "NO"

[[record]]
molecule = "COc1ccc(C(=O)C2CC2c2ccc(Cl)cc2)cc1 (centres undefined)"
answer_label = "NO"

[[record]]
molecule = "CC(C)CCNCC(O)Cn1c2ccccc2c2ccccc21 (centres undefined)"
answer_label = "YES"

[[record]]
molecule = "COc1cc(C2C3=C(COC3=O)N(CCO)c3cc4c(cc32)CCC4)cc(OC)c1O (centres undefined)"
answer_label = "NO"

[[record]]
molecule = "COc1ccc(Nc2nc(N/N=C/c3ccc(O)cc3)nc(Nc3ccc([N+](=O)[O-])cc3)n2)cc1"
answer_label = "NO"

[[record]]
molecule = "FC(F)(F)c1cccc(CNC2CCN(CCc3ccccc3)CC2)c1"
answer_label = "YES"

[[record]]
molecule = "CCOC(=O)C1(Cc2ccccc2)CCN(Cc2cccc(OC)c2O)CC1"
answer_label = "YES"

[[record]]
molecule = "CC(C)[C@H](NC(=O)Cn1cc(C(=O)O)nn1)C(=O)O"
answer_label = "NO"


input: growth under 30%? Item: `CCOC(=O)CSc1c(-c2ccccc2)c2cc(Cl)ccc2[nH]c1=O`
output: NO

input: What do we get for `CCOC(=O)c1cnc2ccc(Cl)cc2c1NCCCN(C)C` ?
output: YES

input: Now the same for `Cc1cccc(NC(=O)c2sc3nc4c(cc3c2N)CCCC4)c1C`
output: YES

input: And what about the molecule `Nc1ccc(C2c3ccccc3Oc3ccccc32)cc1` ?
output: NO

input: Another molecule: `Cc1nc(Nc2cn[nH]c2C(=O)Nc2ccc(CN3CCN(C)CC3)cc2)c2ccsc2n1`
output: NO

input: Follow-up entry: `Cn1cc([C@@H]2Nc3ccc4[nH]ncc4c3[C@H]3[C@H]4CCC(C4)[C@H]32)c(C(F)(F)F)n1`
output: NO
